// provenance: paper PMC11593560

tgt: CAIX (Homo sapiens)
Construct: hCAIX expressed in Xenopus oocytes; with rMCT4 (coexpressed)
experimental-protocol: inhibition of CAIX-mediated increase in MCT4 transport (intracellular H+ microelectrodes, Xenopus oocytes)
endpoint-name: IC50 (µM)
Expressed in µM, but write only the number.

Sure, the documented IC50 for O=C1NS(=O)(=O)c2cc(-n3cc(CCO[C@H]4O[C@@H](CO)[C@@H](O)[C@H](O)[C@@H]4O)nn3)ccc21 is 0.0899
